Tested on: 22Rv1 tumor-bearing mice
Assay: Biodistribution in 22Rv1 tumor-bearing mice
Details: 30 min p.i., 0.74 MBq, n = 3
The label is true for Uptake Bone, Mean below 0.3 ID%/g and false for Uptake Bone, Mean equal to or exceeding 0.3 ID%/g.

Worked examples follow.
molecule: O=C([O-])CN1CCN(CC(=O)[O-])CCN(CC(=O)NCCCCCC(=O)NC(Cc2cnc3ccccc3c2)C(=O)NCCCCC(NC(=O)NC(CCC(=O)O)C(=O)O)C(=O)O)CCN(CC(=O)O)CC1.[68Ga+3] (stereo not shown) [[^68Ga]Ga-PSMA-Q-2]
label-class: false
//
molecule: O=C([O-])CN1CCN(CC(=O)[O-])CCN(CC(=O)NCC2CCC(C(=O)NC(Cc3cnc4ccccc4c3)C(=O)NCCCCC(NC(=O)NC(CCC(=O)O)C(=O)O)C(=O)O)CC2)CCN(CC(=O)O)CC1.[68Ga+3] (stereo not shown) [[^68Ga]Ga-PSMA-Q]
label-class: true
//
molecule: O=C([O-])CN1CCN(CC(=O)[O-])CCN(CC(=O)NCC2CCC(C(=O)NC(Cc3ccncc3)C(=O)NCCCCC(NC(=O)NC(CCC(=O)O)C(=O)O)C(=O)O)CC2)CCN(CC(=O)O)CC1.[68Ga+3] (stereo not shown) [[^68Ga]Ga-PSMA-4PY]
label-class: true
//
molecule: O=C([O-])CN1CCN(CC(=O)[O-])CCN(CC(=O)NCc2ccc(C(=O)NC(Cc3cnc4ccccc4c3)C(=O)NCCCCC(NC(=O)NC(CCC(=O)O)C(=O)O)C(=O)O)cc2)CCN(CC(=O)O)CC1.[68Ga+3] (stereo not shown) [[^68Ga]Ga-PSMA-Q-3]
label-class: false
//
molecule: O=C([O-])CN1CCN(CC(=O)[O-])CCN(CC(=O)NCC2CCC(C(=O)NC(Cc3ccc4ccccc4c3)C(=O)NCCCCC(NC(=O)NC(CCC(=O)O)C(=O)O)C(=O)O)CC2)CCN(CC(=O)O)CC1.[68Ga+3] (stereo not shown) [[^68Ga]Ga-PSMA-617, reference compound]
label-class: false

Q. Here's an entry: O=C([O-])CN1CCN(CC(=O)[O-])CCN(CC(=O)NCCCCC(=O)NC(Cc2cnc3ccccc3c2)C(=O)NCCCCC(NC(=O)NC(CCC(=O)O)C(=O)O)C(=O)O)CCN(CC(=O)O)CC1.[68Ga+3] (stereo not shown) [[^68Ga]Ga-PSMA-Q-1] . Is its Uptake Bone, Mean below 0.3 ID%/g?
A. true
